Reference for the values: PubChem BioAssay (EPA / NIEHS)

Read-out: Monokine induced gamma interferon (MIG), CXCL9 (gene 4283)
Assay: BSK_BE3C_MIG: BioMAP Diversity Plus: BE3C Assay for Monokine induced gamma interferon (MIG) Biomarker Activity (AID 2283035)
Conditions: primary human bronchial epithelial cells; actives raise or lower the signal
The source made the active and inactive calls. How the source made its calls: active means hit-call score of the fitted dose curve at least 0.9, where 1 is the maximum; inactive means score below 0.9.
Labels: active, inactive

# COMPOUND, GROUP
rows = [
    ("C=C(C)C(=O)O[C@H]1C[C@@H]2CC[C@@]1(C)C2(C)C", "active"),
    ("CC(=O)OCCC(C)CC(C)(C)C (stereo not given)", "inactive"),
    ("OC1OC[C@@H](O)[C@H](O)[C@H]1O (stereo not given in full)", "inactive"),
    ("CC(C)(COC(=O)c1ccccc1)COC(=O)c1ccccc1", "inactive"),
    ("CN(CCOc1ccc(CC2SC(=O)NC2=O)cc1)c1ccccn1 (stereo not given)", "inactive"),
]
